Reference for the values: ChEMBL document CHEMBL1133420

pIC50 reference
Biological target: Glutamate receptor ionotropic, NMDA 2A (Homo sapiens, UniProt Q05586+Q12879)
Sequence (Q12879 whole entry, one chain of several): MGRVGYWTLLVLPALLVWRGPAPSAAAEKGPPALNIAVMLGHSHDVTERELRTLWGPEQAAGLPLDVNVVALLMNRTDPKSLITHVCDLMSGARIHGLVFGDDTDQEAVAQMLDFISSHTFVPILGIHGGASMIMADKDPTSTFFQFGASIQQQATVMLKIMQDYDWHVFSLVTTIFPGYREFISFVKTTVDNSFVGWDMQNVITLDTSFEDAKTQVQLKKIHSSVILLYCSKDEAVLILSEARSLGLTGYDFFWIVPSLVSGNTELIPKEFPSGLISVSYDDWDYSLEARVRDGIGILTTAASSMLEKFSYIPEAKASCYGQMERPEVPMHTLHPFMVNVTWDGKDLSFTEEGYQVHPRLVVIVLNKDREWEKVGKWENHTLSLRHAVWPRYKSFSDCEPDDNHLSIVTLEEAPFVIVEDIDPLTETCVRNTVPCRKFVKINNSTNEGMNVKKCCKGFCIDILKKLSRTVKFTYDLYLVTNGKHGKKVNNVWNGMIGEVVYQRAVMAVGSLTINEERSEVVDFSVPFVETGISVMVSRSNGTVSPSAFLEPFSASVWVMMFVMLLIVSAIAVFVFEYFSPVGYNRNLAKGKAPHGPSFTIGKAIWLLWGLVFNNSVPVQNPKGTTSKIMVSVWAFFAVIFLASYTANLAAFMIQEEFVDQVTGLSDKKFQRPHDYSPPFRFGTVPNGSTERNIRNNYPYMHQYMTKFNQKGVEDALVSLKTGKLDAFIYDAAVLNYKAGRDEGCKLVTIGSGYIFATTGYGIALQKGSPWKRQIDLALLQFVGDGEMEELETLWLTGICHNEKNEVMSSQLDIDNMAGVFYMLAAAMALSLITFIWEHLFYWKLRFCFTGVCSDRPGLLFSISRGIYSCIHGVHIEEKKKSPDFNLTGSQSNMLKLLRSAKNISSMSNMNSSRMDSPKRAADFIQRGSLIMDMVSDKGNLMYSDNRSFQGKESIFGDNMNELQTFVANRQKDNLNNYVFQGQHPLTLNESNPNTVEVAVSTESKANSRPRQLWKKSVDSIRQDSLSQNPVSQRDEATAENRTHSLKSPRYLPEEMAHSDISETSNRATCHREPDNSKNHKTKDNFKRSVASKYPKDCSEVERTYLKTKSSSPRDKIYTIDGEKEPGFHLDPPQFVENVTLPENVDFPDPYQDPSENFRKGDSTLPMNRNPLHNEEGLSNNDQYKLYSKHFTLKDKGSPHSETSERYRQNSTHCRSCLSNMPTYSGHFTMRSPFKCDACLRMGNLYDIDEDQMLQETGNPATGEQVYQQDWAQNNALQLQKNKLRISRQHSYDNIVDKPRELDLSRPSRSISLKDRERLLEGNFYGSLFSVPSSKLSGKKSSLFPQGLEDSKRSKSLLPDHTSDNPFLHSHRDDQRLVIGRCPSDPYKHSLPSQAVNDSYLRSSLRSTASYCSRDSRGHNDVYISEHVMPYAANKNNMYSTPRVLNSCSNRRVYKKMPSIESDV
Assay: Antagonistic activity against NR1A/2A receptors in frog oocytes
pIC50: −log10 of the molar value.

Guide cases for pIC50, answers given:
[[record]]
chemical_structure = "Cc1n[nH]c(SCCN2CCC(Cc3ccccc3)CC2)n1"
attribute_measured = "pIC50"
reported_measurement = "< 4.00"

[[record]]
chemical_structure = "O=[N+]([O-])c1ccc2[nH]c(SCCN3CCC(Cc4ccccc4)CC3)nc2c1"
attribute_measured = "pIC50"
reported_measurement = "< 4.00"

[[record]]
chemical_structure = "c1ccc(CC2CCN(CCCSc3nc4ncccc4[nH]3)CC2)cc1"
attribute_measured = "pIC50"
reported_measurement = "< 4.00"

[[record]]
chemical_structure = "Cc1nnc(SCCCN2CCC(Cc3ccccc3)CC2)s1"
attribute_measured = "pIC50"
reported_measurement = "< 4.00"

[[record]]
chemical_structure = "Cc1n[nH]c(SCCCN2CCC(Cc3ccccc3)CC2)n1"
attribute_measured = "pIC50"
reported_measurement = "< 4.00"

[[record]]
chemical_structure = "Oc1ccc(C#CCCN2CCC(Cc3ccccc3)CC2)cc1"
attribute_measured = "pIC50"
reported_measurement = "< 4.00"


Reported pIC50 for c1ccc(CC2CCN(CCSc3nc4ncccc4[nH]3)CC2)cc1 was < 4.00

Reported pIC50 for c1ccc(CC2CCN(CCCSc3nnc[nH]3)CC2)cc1 was 4.29

Reported pIC50 for Oc1ccc(SCCN2CCC(Cc3ccccc3)CC2)cc1 was 4.46

Reported pIC50 for c1ccc(CC2CCN(CCSc3ncc[nH]3)CC2)cc1 was < 4.00

Reported pIC50 for O=[N+]([O-])c1ccc2nc(SCCCN3CCC(Cc4ccccc4)CC3)[nH]c2c1 was 4.21

Reported pIC50 for c1ccc(CC2CCN(CCCSc3ncc[nH]3)CC2)cc1 was 4.11

Reported pIC50 for Nc1n[nH]c(SCCCN2CCC(Cc3ccccc3)CC2)n1 was 4.11

Reported pIC50 for Nc1nnc(SCCCN2CCC(Cc3ccccc3)CC2)s1 was 4.14

Reported pIC50 for Nc1nnc(SCCN2CCC(Cc3ccccc3)CC2)s1 was < 4.00

Reported pIC50 for c1ccc(CC2CCN(CCSc3ccccc3)CC2)cc1 was < 4.00

Reported pIC50 for Cc1nnc(SCCN2CCC(Cc3ccccc3)CC2)s1 was < 4.00

Reported pIC50 for c1ccc(CC2CCN(CCCSc3nc4ccccc4[nH]3)CC2)cc1 was 4.19

Reported pIC50 for Nc1nnc(SCCN2CCC(Cc3ccccc3)CC2)[nH]1 was < 4.00

Reported pIC50 for c1ccc(CC2CCN(CCSc3nc[nH]n3)CC2)cc1 was < 4.00
